# Tested on: c-Src;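 also: 11-residue human phosphosite peptides and single-mutation variants displayed on the E. coli surface, counted by deep sequencing, each peptide's frequency after selection divided by its frequency in the unselected input library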;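 also: frequency after pTyr selection over input frequency; kinase dosed for 20-30% of maximal phosphorylation in three min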
# Method notes: phosphorylation enrichment, bacterial display (enrichment ratio); higher = better substrate or ligand; peptides without Tyr show the background
Would you mind classing the entries by phosphorylation enrichment? Ranges: low end = under 0.5, middle = from 0.5 up to 0.6, high end = 0.6 and over

Sequence input | Label class
FAADFYKLLGN [ROR2_Y646_YF] | middle
GPRKAYELSQR [SETX_Y1297] | low end
GFITSYREEEQ | low end
EDKFMYLEFPQ [PTEN_Y240_F241L] | high end
VFFGSYSCPFG [NKAP_Y104_R106C_YF] | middle
SVTCTYPPALN [TP53_Y126_S127P] | low end
GGDGSYVSVPL [TNNI3K_Y425_S430L] | low end
ASFGPNTRVQS [FOXL2_Y258_Y258N_YF] | low end
IVRSPYEDLED [VHL_Y185_L184P] | middle
EQKKYYNAMKK [SCN5A_Y1495] | low end
RQNRFYDAKVR [FKBP6_Y188] | high end
GEEIKYMLWLL [OTC_Y55_S60L] | middle
PLKFLYPNIDK [STAT1_Y668_YF] | high end
PMDGEYFTLQI [TP53_Y327_L323M] | high end
PATFTYDEFKK [COL8A2_Y648_YF] | high end
GGEAIYAAPFA [Abl_opt_1995] | high end
AVLALHNSTRD [TGFB1_Y81_Y81H] | low end
VHSGTYQVTVC [MYBPC3_Y1043_R1048C] | high end
GLDGSYLLRFS [SH2D1A_Y29_D33Y_YF] | low end
PVADRYDQSFE [MAPK14_Y323_P322R] | high end
LRTAVYHEILI [CREBBP_Y1450] | high end
TLMNAYSSCSH [KIF11_Y231_R234C] | low end
RRESPYGGGGG [FUS_Y526_R524S] | middle
ELTTCYRKKCS [CCBE1_Y70_C75S] | low end
